What pIC50 was measured for each of the following?
System under test: purified human C5 (Homo sapiens, UniProt P01031)
Sequence (P01031 19-1676): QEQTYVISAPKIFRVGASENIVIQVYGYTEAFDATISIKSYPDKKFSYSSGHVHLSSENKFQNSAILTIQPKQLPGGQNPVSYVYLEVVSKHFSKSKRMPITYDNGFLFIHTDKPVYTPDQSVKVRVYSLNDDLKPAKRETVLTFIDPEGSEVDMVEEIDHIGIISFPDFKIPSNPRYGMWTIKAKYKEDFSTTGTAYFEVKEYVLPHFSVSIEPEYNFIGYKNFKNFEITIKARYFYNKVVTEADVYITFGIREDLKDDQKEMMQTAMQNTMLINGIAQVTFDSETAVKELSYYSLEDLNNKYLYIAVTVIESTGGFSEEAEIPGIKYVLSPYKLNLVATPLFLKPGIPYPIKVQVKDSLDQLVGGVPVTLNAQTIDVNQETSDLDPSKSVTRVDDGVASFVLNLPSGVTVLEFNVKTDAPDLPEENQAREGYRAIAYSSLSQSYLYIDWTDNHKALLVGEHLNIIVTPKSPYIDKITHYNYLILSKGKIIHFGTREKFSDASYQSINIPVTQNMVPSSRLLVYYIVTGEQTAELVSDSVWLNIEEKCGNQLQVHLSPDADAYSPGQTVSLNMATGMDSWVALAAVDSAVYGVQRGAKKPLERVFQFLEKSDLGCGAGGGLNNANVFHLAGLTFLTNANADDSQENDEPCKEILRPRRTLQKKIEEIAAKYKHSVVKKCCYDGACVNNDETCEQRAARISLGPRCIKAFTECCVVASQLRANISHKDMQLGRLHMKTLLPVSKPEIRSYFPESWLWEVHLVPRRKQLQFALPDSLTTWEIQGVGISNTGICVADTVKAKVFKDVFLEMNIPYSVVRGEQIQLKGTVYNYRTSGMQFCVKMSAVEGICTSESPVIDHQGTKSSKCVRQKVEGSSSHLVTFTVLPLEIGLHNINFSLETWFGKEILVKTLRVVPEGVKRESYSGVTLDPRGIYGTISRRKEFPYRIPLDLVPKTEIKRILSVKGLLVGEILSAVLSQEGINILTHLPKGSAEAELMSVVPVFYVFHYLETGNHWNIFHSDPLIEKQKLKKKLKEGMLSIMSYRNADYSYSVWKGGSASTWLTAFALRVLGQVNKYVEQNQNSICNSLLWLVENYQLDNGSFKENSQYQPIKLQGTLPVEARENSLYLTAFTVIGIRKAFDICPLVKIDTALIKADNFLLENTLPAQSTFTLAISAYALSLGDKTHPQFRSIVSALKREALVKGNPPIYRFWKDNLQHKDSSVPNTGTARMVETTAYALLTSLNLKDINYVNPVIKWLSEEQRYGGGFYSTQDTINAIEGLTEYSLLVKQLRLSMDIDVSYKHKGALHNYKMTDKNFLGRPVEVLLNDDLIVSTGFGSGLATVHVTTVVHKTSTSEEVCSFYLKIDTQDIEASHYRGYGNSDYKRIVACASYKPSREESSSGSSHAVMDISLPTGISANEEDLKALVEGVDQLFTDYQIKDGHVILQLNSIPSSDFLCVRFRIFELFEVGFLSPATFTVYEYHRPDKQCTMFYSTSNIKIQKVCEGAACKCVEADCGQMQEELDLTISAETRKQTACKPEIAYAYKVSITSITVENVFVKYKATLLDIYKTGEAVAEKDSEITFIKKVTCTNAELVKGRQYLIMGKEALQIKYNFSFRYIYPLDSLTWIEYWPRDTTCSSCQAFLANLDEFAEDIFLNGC
Test: Red blood cell hemolysis assay, optical, absorbance 412 nm (Example 3, Table 6)
Assay type: cell-based
Test parameters: antibody-sensitized sheep erythrocytes, 1.5% human C5 depleted sera, 0.5 nM human C5; average where replicates
One number for each entry, as −log10 of the molar value.

Compound	pIC50
COc1ccc(NC(=O)NC(CO)c2cccc(F)c2)cc1OCCCC(C)C (stereo not shown) [SM0018]	6.38

# per-item lookup of pIC50; items listed below
1. COc1ccc(NC(=O)N[C@@H](CO)c2ccccc2)cc1OCC(F)(F)F [SM0085]
2. COc1ccc(NC(=O)NCc2ccccn2)cc1OCCCC(C)C [SM0045]

[4.79, 5.65]

----------
Test: Kinetic solubility in PBS pH 7.4, HPLC-UV (Example 21, Table 27)
Type: physicochemical
Test parameters: phosphate buffered saline, aqueous buffer, kinetic from dmso stock, 0.5 M PBS, shaken minimum 24 h at approximately 25° C., HPLC-UV 270 nm
What solubility kinetic was measured for each of the following?
One number for each entry, in µM.

Molecule	Value observed
CCCCCOc1cc(N2CCCN(Cc3ccc(CNC(=O)c4ccnnc4)cc3OC)C2=O)ccc1OC	62
COc1cc(CC(=O)N(C)C)ccc1CN1CCCN(c2ccc(OC)c(OCCCC(F)(F)C(F)(F)F)c2)C1=O	209
CCCCCOc1cc(N2CCCN(Cc3cccc4c3ccn4CC(=O)N3CCOC(CN(C)C)C3)C2=O)ccc1OC (stereo not drawn)	376
CCCCCOc1cc(N2CC[C@H](C)N(Cc3cccc4c3ccn4CC(=O)N3CCO[C@H](CN(C)C)C3)C2=O)ccc1OC	309
COc1ccc(F)cc1CN1CCCN(c2ccc(OC)c(OCCC3CCC3)c2)C1=O	58

The record that follows has no solubility kinetic shown yet.
The molecule identified as "CCCCCOc1cc(N2CCCN(Cc3ccnc4c3c(Cl)cn4CCOC(=O)N3CCS(=O)(=O)CC3)C2=O)ccc1OC" registered its solubility kinetic at 19

----------
What pKd was measured for each of the following?
System under test: Human C5 (Homo sapiens, UniProt P01031)
Construct: purchased Complement Technology
Sequence (P01031 19-1676): as above
Test: Surface plasmon resonance (SPR), immobilized human C5 (Example 9, Table 18)
Type: binding
Test parameters: immobilized human C5, equilibrium dissociation constant; read-out: SPR C5 EQ KD
Answers are plain numbers, as −log10 of the molar value.

Compound	pKd
COc1ccc(NC(=O)NCc2cccc(F)c2O)cc1OCCCC(C)C	7.09
COc1ccc(NC(=O)NCc2cccc(NC(C)=O)c2)cc1OCCCC(C)C	6.22
COCCOCCOc1cc(CNC(=O)Nc2ccc(OC)c(OCCCC(C)C)c2)ccn1	6.09

The record that follows has no pKd shown yet.
The compound identified as COc1ccc(NC(=O)NC(CO)c2ccccc2)cc1COCCC(C)C (stereo not shown) registered its pKd at 5.95

----------
Test: Permeability assay, unidirectional transport, Papp (Example 30, Table 34)
Type: in vitro ADME, canine
Test parameters: dog, pH 7.4; MDCK-WT cell monolayers, A-to-B, 3 μM test compound, 37° C., duplicate determinations
Lab note: cut-off is 20 ×10⁻⁶ cm/s. Strictly less in Papp A→B at 3 μM is Fulfilled. Exactly 20 ×10⁻⁶ cm/s or more is Not fulfilled.

Solved cases (5 shown):
Compound	Class
CCCCCOc1cc(N2CCCN(Cc3ccnc4c3c(Cl)cn4CC(=O)N3CCOCC3)C2=O)ccc1OC [CU0526]	Fulfilled
CCCCCOc1cc(N2CCCN(Cc3ccnc4c3c(Cl)cn4CC(=O)N3CC[C@@H](OC)C3)C2=O)ccc1OC [CU0534]	Fulfilled
CCCCCOc1cc(N2CCCN(Cc3ccnc4c3c(Cl)cn4CC(=O)N3CCC3)C2=O)ccc1OC [CU0560]	Not fulfilled
COc1cc(Cc2ccncn2)ccc1CN1C(=O)N(c2ccc(OC)c(OCCCC3CC3)c2)CC[C@@H]1C [SC0102]	Fulfilled
CCCCCOc1cc(N2CCCN(Cc3ccnc4c3c(Cl)cn4CC(=O)N3CC(O)C3)C2=O)ccc1OC [CU0518]	Fulfilled

Strictly below 20 ×10⁻⁶ cm/s in Papp A→B at 3 μM? CCCCCOc1cc(N2CC[C@H](C)N(Cc3cccc4c3c(Cl)cn4CC(=O)N(C)C)C2=O)ccc1OC [SC0112] Fulfilled

Strictly below 20 ×10⁻⁶ cm/s in Papp A→B at 3 μM? CCCCCOc1cc(N2CCCN(Cc3ccnc4c3c(Cl)cn4CC(=O)N(C)C)C2=O)cnc1OC [CU0616] Not fulfilled

Strictly below 20 ×10⁻⁶ cm/s in Papp A→B at 3 μM? CCCCCOc1cc(N2CC[C@H](C)N(Cc3cccc4c3c(Cl)cn4CC3=NCCN3C)C2=O)ccc1OC [SC0169] Fulfilled
